From: patent US20210309735A1

As shown below, each of these binders has a reported Blocking % value.
- TARGET_UNDER_TEST: T1, human IL-17A (human, UniProt Q16552 20-155, limits assumed)
- T1 construct: Bought from R&D Systems; also called IL-17 antigen (human IL17A)
- T1 sequence (looked up): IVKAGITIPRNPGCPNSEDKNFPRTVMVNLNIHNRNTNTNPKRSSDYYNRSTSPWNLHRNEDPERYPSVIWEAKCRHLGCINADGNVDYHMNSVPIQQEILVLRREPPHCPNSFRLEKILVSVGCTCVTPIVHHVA
- EXPERIMENTAL_DETAILS: blocking ELISA, IL-17RC coated; antibody 1 ug/ml pre-mixed with human IL-17A 0.1 ug/ml; bound IL-17A detected
PARAMETER_MEASURED: Blocking % (%)

BINDER	UNIT_TAG	VALUE
PP10764 (antibody, human IgG4 S228P, kappa, V domains shown, Humanized, human IgG4/kappa; also called VH6666/VL6666) VH: EVQLVESGGGLVQPGGSLRLSCAASGFTFSTYGMSWVRQAPGKGLELVAIINHNGGSTFYPDSVKGRFTVSRDNSKNTLYLQMNSLRAEDTAVYYCARDPRHDGYFFDYWGQGTLVTVSS VL: DIQMTQSPSSLSASVGDRVTITCQASEDIYDRLAWYQQKPGKAPKLLISGATSLETGVPSRFSGSGSGKDYTFTISSLQPEDIATYYCQQYWSVPWTFGGGTKVEIKR	%	98.9
PP10766 (antibody, human IgG4 S228P, kappa, V domains shown, Humanized, human IgG4/kappa; also called VH6667/VL6665) VH: EVQLVESGGGVVQPGRSLRLSCAASGFTFSTYGMSWVRQAPGKGLELVAIINHNGGSTFYPDSVKGRFTISRDNSKNTLYLQMNSLRAEDTAVYYCARDPRHDGYFFDYWGQGTLVTVSS VL: DIQMTQSPSSLSASVGDRVTITCQASEDIYDRLAWYQQKPGKAPKLLISGATSLETGVPSRFSGSGSGTDYTFTISSLQPEDIATYYCQQYWSVPWTFGGGTKVEIKR	%	100
PP10762 (antibody, human IgG4 S228P, kappa, V domains shown, Humanized, human IgG4/kappa; also called VH6665/VL6667) VH: EVQLVESGGGLVQPGGSLRLSCAASGFTFSTYGMSWVRQAPGKGLELVSIINHNGGSTFYPDSVKGRFTISRDNSKNTLYLQMNSLRAEDTAVYYCARDPRHDGYFFDYWGQGTLVTVSS VL: DIQMTQSPSSLSASVGDRVTITCRASEDIYDRLAWYQQKPGKAPNLLVSGATSLESGVPSRFSGSGSGKDYTLTISSLQPEDFATYYCQQYWSVPWTFGGGTKVEIKR	%	99.5
PP10761 (antibody, human IgG4 S228P, kappa, V domains shown, Humanized, human IgG4/kappa; also called VH6665/VL6666) VH: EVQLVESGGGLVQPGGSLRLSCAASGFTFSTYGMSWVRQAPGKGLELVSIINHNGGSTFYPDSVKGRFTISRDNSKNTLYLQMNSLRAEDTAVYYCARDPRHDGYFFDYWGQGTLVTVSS VL: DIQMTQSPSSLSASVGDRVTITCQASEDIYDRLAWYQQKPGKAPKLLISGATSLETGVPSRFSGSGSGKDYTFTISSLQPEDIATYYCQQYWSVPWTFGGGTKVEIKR	%	99.8
PP10759 (antibody, human IgG4 S228P, kappa, V domains shown, expressed in HEK293; also called chimeric antibody PP10759; chimeric parental antibody) VH: EVQLVESGGGLVQPGGSLKLSCVASGFTFSTYGMSWVRQTPDKRLELVAIINHNGGSTFYPDSVKGRFTVSRDNAKNTLHLQMSSLKSEDTAMYYCARDPRHDGYFFDYWGQGTTLTVSS VL: DIQMTQSSPSFSVSLGDRVTITCKASEDIYDRLAWYQQKPGNAPRLLISGATSLETGIPSRFSGSRSGKDYTLDINSLQTEDAATYYCQQYWSVPWTFGGGTKLEIKR	%	95.2
PP10765 (antibody, human IgG4 S228P, kappa, V domains shown, Humanized, human IgG4/kappa; also called VH6666/VL6667) VH: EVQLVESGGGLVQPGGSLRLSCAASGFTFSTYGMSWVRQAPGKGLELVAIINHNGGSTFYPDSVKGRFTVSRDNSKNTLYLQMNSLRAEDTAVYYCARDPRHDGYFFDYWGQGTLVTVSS VL: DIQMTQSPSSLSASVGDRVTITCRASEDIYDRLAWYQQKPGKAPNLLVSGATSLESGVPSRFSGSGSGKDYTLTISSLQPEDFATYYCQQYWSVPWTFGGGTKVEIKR	%	95.2
PP10760 (antibody, human IgG4 S228P, kappa, V domains shown, Humanized, human IgG4/kappa; also called VH6665/VL6665) VH: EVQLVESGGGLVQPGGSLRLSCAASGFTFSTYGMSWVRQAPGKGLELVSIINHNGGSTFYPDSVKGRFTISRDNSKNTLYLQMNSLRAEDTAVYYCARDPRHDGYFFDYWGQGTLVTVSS VL: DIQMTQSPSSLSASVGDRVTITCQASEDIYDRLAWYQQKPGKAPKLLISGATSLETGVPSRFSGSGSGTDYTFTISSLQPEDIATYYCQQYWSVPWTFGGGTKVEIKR	%	98
PP10768 (antibody, human IgG4 S228P, kappa, V domains shown, Humanized, human IgG4/kappa; also called VH6667/VL6667) VH: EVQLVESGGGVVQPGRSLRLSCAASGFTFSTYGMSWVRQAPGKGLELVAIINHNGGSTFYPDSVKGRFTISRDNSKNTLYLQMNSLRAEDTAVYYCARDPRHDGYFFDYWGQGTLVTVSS VL: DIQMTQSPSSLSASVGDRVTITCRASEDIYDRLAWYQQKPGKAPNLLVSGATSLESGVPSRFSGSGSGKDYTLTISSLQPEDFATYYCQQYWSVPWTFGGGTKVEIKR	%	99.9
PP10767 (antibody, human IgG4 S228P, kappa, V domains shown, Humanized, human IgG4/kappa; also called VH6667/VL6666) VH: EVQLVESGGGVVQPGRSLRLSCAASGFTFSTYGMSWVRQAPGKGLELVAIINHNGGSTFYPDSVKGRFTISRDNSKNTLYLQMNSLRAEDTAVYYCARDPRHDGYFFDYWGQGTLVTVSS VL: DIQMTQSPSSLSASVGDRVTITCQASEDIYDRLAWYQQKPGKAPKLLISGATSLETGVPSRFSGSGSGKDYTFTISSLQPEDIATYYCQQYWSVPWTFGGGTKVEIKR	%	99.9
PP10763 (antibody, human IgG4 S228P, kappa, V domains shown, Humanized, human IgG4/kappa; also called VH6666/VL6665) VH: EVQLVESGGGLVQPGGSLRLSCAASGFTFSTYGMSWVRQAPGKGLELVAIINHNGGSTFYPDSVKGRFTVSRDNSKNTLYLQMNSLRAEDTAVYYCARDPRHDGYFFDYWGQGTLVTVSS VL: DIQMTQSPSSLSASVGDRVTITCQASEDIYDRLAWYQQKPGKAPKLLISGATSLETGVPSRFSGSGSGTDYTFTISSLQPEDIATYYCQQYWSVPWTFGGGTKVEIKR	%	98.9
